# Target under test: BTK-1h (Homo sapiens, UniProt Q06187)
# Construct: The BTK kinase domain was diluted to 2 μM in the buffer, and 2 μM 1h was added; made in house
# Sequence (Q06187 402-655): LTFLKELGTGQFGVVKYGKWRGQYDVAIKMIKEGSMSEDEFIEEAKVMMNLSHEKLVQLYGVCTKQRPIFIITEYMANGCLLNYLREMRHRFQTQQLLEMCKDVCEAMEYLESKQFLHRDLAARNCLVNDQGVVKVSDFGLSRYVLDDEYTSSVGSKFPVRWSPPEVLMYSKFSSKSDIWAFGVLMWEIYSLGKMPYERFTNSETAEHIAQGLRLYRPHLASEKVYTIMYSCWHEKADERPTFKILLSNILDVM
# Method summary: High-throughput screening with 1h-labeled BTK
# Format: binding
# Measurement setup: Dataset S2A; 200 μM compound, BTK-1h, 32 °C, 10 min
Catalogue of FI (650)/FI (620) values
Quantity kind: FI (650)/FI (620)

                                   compound      quantity_kind   value
0  C=CC(=O)Nc1cccc(Nc2nc(Nc3ccc(OCCOC)cc3)ncc2F)c1 [PCM-0095787-002]  FI (650)/FI (620)   1.569
1  Cl.Cl.Fc1ccc(C(c2ccc(F)cc2)N2CCN(C/C=C/c3ccccc3)CC2)cc1 [PCM-0065210-003]  FI (650)/FI (620)  0.8526
2  C=CC(=O)Nc1cccc(Oc2nc(Nc3ccc(N4CCN(C)CC4)cc3)ncc2Cl)c1 [PCM-0095023-002]  FI (650)/FI (620)   1.149
3  CN(c1ncccc1CNc1nc(Nc2ccc3c(c2)CC(=O)N3)ncc1C(F)(F)F)S(C)(=O)=O.O=S(=O)(O)c1ccccc1 [PCM-0095340-005]  FI (650)/FI (620)   1.135

All figures here come from paper PMC8662641.
